Molecular target: Cytochrome P450 3A4 (Homo sapiens, UniProt P08684);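 note: confirmatory qHTS run detecting inhibitors and substrates of CYP3A4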
Sequence (P08684 whole entry): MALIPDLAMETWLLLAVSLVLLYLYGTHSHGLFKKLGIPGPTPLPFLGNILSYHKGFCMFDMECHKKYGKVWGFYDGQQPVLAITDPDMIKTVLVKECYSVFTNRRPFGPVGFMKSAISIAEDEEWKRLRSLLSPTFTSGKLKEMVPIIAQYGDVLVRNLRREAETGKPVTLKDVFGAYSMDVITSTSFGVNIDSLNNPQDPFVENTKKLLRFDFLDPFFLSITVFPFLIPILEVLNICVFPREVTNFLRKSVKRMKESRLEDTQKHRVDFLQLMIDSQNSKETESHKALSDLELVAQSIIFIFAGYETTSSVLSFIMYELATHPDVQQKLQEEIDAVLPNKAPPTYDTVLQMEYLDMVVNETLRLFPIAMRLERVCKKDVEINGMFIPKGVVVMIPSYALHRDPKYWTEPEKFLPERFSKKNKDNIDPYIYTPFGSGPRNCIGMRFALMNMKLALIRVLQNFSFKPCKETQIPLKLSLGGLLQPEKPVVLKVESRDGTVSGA
Conditions: Potency
readout.kind: AC50

Given the entry CC(C)c1c(O)ccc2c1CCC1C(C)(C)CCC[C@@]21C (stereo partly drawn) , what AC50 was observed with Cytochrome P450 3A4 (Homo sapiens, UniProt P08684)?
25.1 µM (inconclusive)

Can you handle O=C(/C=C/c1ccccc1)OC1CC(O)C2(O)C=CO[C@@H](OC3OC(CO)C(O)C(O)C3O)C12 (stereo partly drawn) next?
3.98 µM (inconclusive)

Can you handle S=C=Nc1cccc2ccccc12 [1-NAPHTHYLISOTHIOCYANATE] next?
25.1 µM (inconclusive)

====

Target: Cytochrome P450 2C19 (Homo sapiens)
Sequence (P33261 whole entry): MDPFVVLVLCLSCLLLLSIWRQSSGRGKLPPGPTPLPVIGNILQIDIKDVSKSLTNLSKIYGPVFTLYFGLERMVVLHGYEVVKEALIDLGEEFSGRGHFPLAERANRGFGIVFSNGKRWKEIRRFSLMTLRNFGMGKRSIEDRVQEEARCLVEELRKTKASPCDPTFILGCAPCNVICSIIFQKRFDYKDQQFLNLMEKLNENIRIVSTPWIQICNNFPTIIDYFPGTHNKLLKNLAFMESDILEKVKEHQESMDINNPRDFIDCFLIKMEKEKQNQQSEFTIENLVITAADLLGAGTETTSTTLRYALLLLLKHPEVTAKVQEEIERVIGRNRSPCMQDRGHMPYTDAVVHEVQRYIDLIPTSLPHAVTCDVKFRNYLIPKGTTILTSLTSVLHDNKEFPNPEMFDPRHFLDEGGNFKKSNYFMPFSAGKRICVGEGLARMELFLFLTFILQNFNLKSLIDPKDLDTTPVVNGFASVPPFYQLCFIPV
Experiment: Cytochrome panel assay with activity outcomes. Panel member name: p450-cyp2c19 Compounds with AC50 equal or less than 10 uM are considered active
Assay type: functional
Settings: read-out: AC50
Activity calls are given as the source filed them.
readout.kind: AC50

Given the entry CCN(CC)S(=O)(=O)N1CCC(C(=O)NC2CCCC2)CC1 , what AC50 was observed with Cytochrome P450 2C19 (Homo sapiens)?
39.8 µM (inconclusive)

Can you handle CCC(=C(CC)c1ccc(O)cc1)c1ccc(O)cc1 next?
15.8 µM (inconclusive)

Can you handle Cc1nc2c(C)cccn2c1C(=O)C1=C(O)C(=O)N(CCN2CCOCC2)C1c1cccs1 (stereo not drawn) next?
8.91 µM (inconclusive)

Can you handle CCOC(=O)c1c(NC(=O)CCCN2CCOCC2)sc2c1CC(C)(C)OC2 next?
39.8 µM (inconclusive)

Can you handle O=C(Nc1ccccc1)N1CCCC2(CCN(C(=O)c3csnn3)CC2)C1 next?
3.98 µM (inconclusive)

Can you handle O=C(Nc1ccc(Cl)cc1C(F)(F)F)c1ccc(Cl)cc1 next?
2.24 µM (inconclusive)

Can you handle O=C(/C=C/c1ccccc1)NNC(=O)c1cccnc1 next?
31.6 µM (inconclusive)

Can you handle CC(C)(C)c1ccc(C2CC2C(=O)N/N=C\c2cc3ccccc3nc2Cl)cc1 (stereo not drawn) next?
11.2 µM (inconclusive)

Can you handle COc1cccc(Cn2c(=O)c(-c3ccc(Cl)cc3)nc3cnc(OC)nc32)c1 next?
1.26 µM (inconclusive)

Can you handle O=C(CC(=O)NN=C1CCCC1)NCCc1ccccc1 next?
25.1 µM (inconclusive)

Can you handle COc1ccc(CCNC(=O)c2nnn(CC(=O)Nc3ccccc3C)c2N)cc1OC next?
17.8 µM (inconclusive)

Can you handle CC(C)c1ccc(C2C(C#N)=C(N)N3C(=C2C#N)Sc2ccccc23)cc1 (stereo not drawn) next?
14.1 µM (inconclusive)

Can you handle Cc1cccc(NC(=O)c2onc3c2CCCC3)c1C next?
20 µM (inconclusive)

Can you handle Cc1ccc2[nH]c(SCc3ccc([N+](=O)[O-])cc3)nc2c1 next?
0.794 µM (active)

Can you handle O=C(NCC1CCCO1)C(c1cccnc1)N(C(=O)Cc1cccs1)c1ccccc1 (stereo not drawn) next?
17.8 µM (inconclusive)

Can you handle COc1ccc(S(=O)(=O)NCCC(=O)NC(C)c2ccccc2)cc1 (stereo not drawn) next?
17.8 µM (inconclusive)

Can you handle O=C(CSc1nnc(Cn2nnc3ccccc32)o1)Nc1cccc(Cl)c1 next?
22.4 µM (inconclusive)

Can you handle Oc1c(CN2CCOCC2)cc(-c2ccccc2)cc1CN1CCOCC1 next?
11.2 µM (inconclusive)
